study_system: SK3 channel (Rattus norvegicus)
Construct: expressed in transfected cells
assay: Conventional manual patch clamp on HEK-rSK3 cells, SK3 channel activity
Type: cell-based
measurement_context: 500 nM
endpoint: inhibition at 0.5 µM (%)

These solved cases illustrate the format of a correct answer.
>>> recorded_measurement("Cc1nc(NC2CCCc3ccccc32)c2ncccc2n1 (stereo not drawn) [Compound 30]")
52.9
>>> recorded_measurement("Cc1cc(C)n(-c2nc(NC3CCCc4ccccc43)c3ncccc3n2)n1 (stereo not drawn) [Compound 67]")
39.3
>>> recorded_measurement("Oc1nc(NC2CCCc3ccccc32)c2ncccc2n1 (stereo not drawn) [Compound 34]")
40.4
>>> recorded_measurement("COc1cccc2c1CCCC2Nc1ncnc2cccnc12 (stereo not drawn) [Compound 88]")
54.8
>>> recorded_measurement("Fc1nc(N[C@H]2CCCc3ccccc32)c2ncccc2n1 [Compound 49]")
75.8
>>> recorded_measurement("c1ccc2c(c1)CCCN2Nc1ncnc2cccnc12 [Compound 53]")
94.2
>>> recorded_measurement("COCOc1ccc2c(c1)CCCC2N (stereo not drawn) [Compound 103]")
46.9
>>> recorded_measurement("c1ccc2c(c1)CCC2Nc1ncnc2cccnc12 (stereo not drawn) [Compound 87]")
47.4

A. N#Cc1nc(NC2CCCc3ccccc32)c2ncccc2n1 (stereo not drawn) [Compound 32]
B. Fc1ccc2c(c1)C(Nc1ncnc3cccnc13)CCC2 (stereo not drawn) [Compound 90]
query: # compare inhibition at 0.5 µM for A vs B ; return the one with the smaller value // return label of chosen record
result: A

I. c1ccc2c(Nc3ncnc4cccnc34)cccc2c1 [Compound 86]
II. CCCCCCOc1cnc2c(NC3CCCc4ccccc43)ncnc2c1 (stereo not drawn) [Compound 74]
query: Parameter check: reported inhibition at 0.5 µM is higher for which label, I or II ? // return label of chosen record
result: II

----------
study_system: SK3 channel (Rattus norvegicus)
Construct: expressed in transfected cells
assay: Conventional manual patch clamp on HEK-rSK3 cells, SK3 channel activity
Type: cell-based
measurement_context: 50 nM
endpoint: inhibition at 0.05 µM (%)

These solved cases illustrate the format of a correct answer.
>>> recorded_measurement("Clc1cnc2c(NC3CCCc4ccccc43)ncnc2c1 (stereo not shown)")
31.4
>>> recorded_measurement("Fc1ccc2c(c1)C(Nc1ncnc3cccnc13)CCC2 (stereo not shown)")
16.1
>>> recorded_measurement("Fc1ccc2c(c1)CCCC2Nc1ncnc2cccnc12 (stereo not shown)")
32
>>> recorded_measurement("c1ccc2c(c1)CCCN2Nc1ncnc2cccnc12")
29.2
>>> recorded_measurement("COc1cccc2c1CCCC2Nc1ncnc2cccnc12 (stereo not shown)")
25.8
>>> recorded_measurement("Cc1nc(NC2CCCc3ccccc32)c2ncccc2n1 (stereo not shown)")
35.5

1. Fc1cnc2c(N[C@H]3CCCc4ccccc43)ncnc2c1
2. c1ccc2c(Nc3ncnc4cccnc34)cccc2c1
query: # compare inhibition at 0.05 µM for 1 vs 2 ; return the one with the smaller value // return label of chosen record
result: 2
(2: -9.01%, 1: 35.8%)

----------
study_system: SK2 channel (Rattus norvegicus, UniProt P70604)
Construct: expressed in transfected cells
assay: Automated patch clamp (Nanion NPC-16 Patchliner Quattro) on HEK-rSK2 cells, SK2 channel activity
Format: cell-based
measurement_context: 100 nM
endpoint: inhibition at 0.1 µM (%)

These solved cases illustrate the format of a correct answer.
>>> recorded_measurement("Cl.c1ccc2c(c1)CCCC2Nc1ncnc2cccnc12 (stereo not shown)")
80
>>> recorded_measurement("c1ccc2c(c1)CCC[C@H]2Nc1ncnc2cccnc12")
92.9
>>> recorded_measurement("CNc1nc(NC2CCCc3ccccc32)c2ncccc2n1 (stereo not shown)")
83.7
>>> recorded_measurement("c1ccc2c(c1)CCC[C@@H]2Nc1ncnc2cccnc12")
91.2

a. CCCCCCc1cnc2c(NC3CCCc4ccccc43)ncnc2c1 (stereo not shown)
b. Oc1nc(NC2CCCc3ccccc32)c2ncccc2n1 (stereo not shown)
c. c1ccc2c(c1)CCCN2Nc1ncnc2cccnc12
query: Sort low-to-high on inhibition at 0.1 µM, please. Provide the ranking by listing each label in its place in the requested order.
result: a, c, b
(a: 25.6%, c: 41.9%, b: 92.7%)

----------
study_system: SK2 channel (Rattus norvegicus, UniProt P70604)
Construct: expressed in transfected cells
assay: Automated patch clamp (Nanion NPC-16 Patchliner Quattro) on HEK-rSK2 cells, SK2 channel activity
Type: cell-based
measurement_context: 10 μM
endpoint: inhibition at 10 µM (%)

>>> recorded_measurement("Oc1nc(NC2CCCc3ccccc32)c2ncccc2n1 (stereo not shown) [Compound 34]")
94.8

A. Cl.c1ccc2c(c1)CCCC2Nc1ncnc2cccnc12 (stereo not shown) [Compound 75]
B. c1cnc2c(NC3CCCCC3)ncnc2c1 [Compound 23]
query: # compare inhibition at 10 µM for A vs B ; return the one with the smaller value // return label of chosen record
result: B

A. CCCCCCc1cnc2c(NC3CCCc4ccccc43)ncnc2c1 (stereo not shown) [Compound 40]
B. c1ccc2c3c(ccc2c1)CCCC3Nc1ncnc2cccnc12 (stereo not shown) [Compound 29]
query: Parameter check: reported inhibition at 10 µM is higher for which label, A or B ? // return label of chosen record
result: A

----------
study_system: SK2 channel (Rattus norvegicus)
Construct: expressed in transfected cells
assay: Automated patch clamp (Nanion NPC-16 Patchliner Quattro) on HEK-rSK2 cells, SK2 channel activity
Assay type: cell-based
measurement_context: 10 μM
endpoint: inhibition at 10 µM (%)

These solved cases illustrate the format of a correct answer.
>>> recorded_measurement("c1ccc2c(c1)CCC[C@@H]2Nc1ncnc2cccnc12 [Compound 20]")
91.8
>>> recorded_measurement("Cc1nc(NC2CCCc3ccccc32)c2ncccc2n1 (centres unmarked) [Compound 30]")
95
>>> recorded_measurement("CNc1nc(NC2CCCc3ccccc32)c2ncccc2n1 (centres unmarked) [Compound 35]")
91.4

A. c1ccc2c(c1)CCC[C@H]2Nc1ncnc2cccnc12 [Compound 18]
B. c1ccc2c(c1)CCCN2Nc1ncnc2cccnc12 [Compound 53]
query: # compare inhibition at 10 µM for A vs B ; return the one with the smaller value // return label of chosen record
result: B

Data provenance is patent US11932638B2.
